- Test system: Kornkäfer (sitophilus granarius L)
- ASSAY REMARKS: whole plant or invertebrate
- Type: in vivo
- APPLIED CONDITIONS: amine 1 mg/ml + Talcord 0,01 mg/ml
Assign Synergistischer Faktor bei Talcord to each entry below.

Use these answered entries as a reference point.
CCCCC(CC)CN1CCCC1 (stereo not drawn) [N-1-(2-Ethyl)-hexyl-pyrrolidin]
4,24
CCCCCCCCCCCCN1CCCCC1C (stereo not drawn) [N-1-Dodecyl-2-methyl-piperidin]
2,06
CCCCCCCCCCCCCN1CCCC1 [N-1-Tridecyl-pyrrolidin]
2,19
Oc1cc(CN2CCCCC2)c(O)cc1CN1CCCCC1
2,47
CCCCCCCCCCCCN1CCOCC1 [N-1-Dodecyl-morpholin]
1,53

Hello, I would appreciate it if you could give Synergistischer Faktor bei Talcord for each entry below.
1. N#CCN1CCCCCC1 [N-Hexamethylenimino-aceto-nitril]
2. c1cc2c(cc1CN1CCCCCC1)OCO2 [N-Piperonyl-hexamethylenimin]
3. CCCCOCCOCCOCCN1CCCC1

1. 1,53
2. 7,01
3. 1,24

Give me Synergistischer Faktor bei Talcord for each of these compounds, listed below.
1. c1ccc(OCCCN2CCCCCC2)cc1 [N-3-Phenoxi-propyl-(1)-hexamethylenimin]
2. CCCCCCCCN1CCCCC1CC (stereo not drawn) [N-1-Octyl-2-ethyl-piperidin]
3. CCCCCCCCN1CCCC1 [N-1-Octyl-pyrrolidin]
4. CCOC(=O)C(CC)N1CCOCC1 (stereo not drawn) [2-N-Morpholino-buttersäure-ethylester]
5. OCCN1CCCC1 [2-N-Pyrrolidino-ethanol]
6. CCCCCN1CCOCC1 [N-1-Pentyl-morpholin]
7. C(CCCCCN1CCCCC1)CCCCN1CCCCC1 [1,10-N,N-Di-piperidino-decan]
8. CC(C)=CCCC(C)CCN1CCCCC1 (stereo not drawn) [N-Citronellyl-piperidin]

1. 3,42
2. 2,60
3. 4,12
4. 3,30
5. 5,48
6. 3,83
7. 6,06
8. 5,53

I would be grateful if you could provide Synergistischer Faktor bei Talcord for each of the following entries.
1. c1ccc(COCCN2CCOCC2)cc1 [N-(2-Benzyloxi-ethyl-(1))-morpholin]
2. CCCCCCCCCCCCCN1CCCCC1 [N-1-Tridecyl-piperidin]
3. c1ccc(OCCN2CCCCCC2)cc1 [N-2-Phenoxi-ethyl-(1)-hexa-methylenimin]
4. c1cc2c(cc1CN1CCCC1)OCO2 [N-Piperonyl-pyrrolidin]
5. CC(C)=CCCC(C)=CCN1CCCCC1
6. Clc1ccc(CN2CCCCC2)cc1 [N-4-Chlor-benzyl-piperidin]

1: 3,30; 2: 1,77; 3: 5,09; 4: 4,29; 5: 8,37; 6: 4,82

Here are 2 compounds. What values of Synergistischer Faktor bei Talcord were reported for them?
1. CCCCCCCCCCCCN1CCCCCC1 [N-1-Dodecyl-hexamethylenimin]
2. O=C(OCc1ccccc1)C(c1ccccc1)N1CCCCC1 (stereo not drawn)

["1,03", "2,89"]
